- Test system: neonatal murine calvarial bones
- experiment: Neonatal murine calvarial bone formation assay
- Assay type: cell-based, ICR Swiss mice
- assay context: 4 and 7 days (FIGS. 2, 5, 8, 11)
assay readout: alkaline phosphatase in the calvarial culture media

structure as smiles	recorded measurement
CC1(C)CC[C@]2(C(=O)O)CC[C@]3(C)[C@H](C(=O)C=C4[C@@]5(C)C=C(C#N)C(=O)C(C)(C)[C@@H]5CC[C@]43C)[C@@H]2C1	increases
COC(=O)[C@]12CCC(C)(C)C[C@H]1[C@H]1C(=O)C=C3[C@@]4(C)C=C(C#N)C(=O)C(C)(C)[C@@H]4CC[C@@]3(C)[C@]1(C)CC2	increases

Reference source for all entries: patent US8299046B2
